// provenance: paper PMC8119466

targetOfAssay: recombinant PRL-1 (Homo sapiens, UniProt Q93096)
Construct: 6xHis (N, cleaved yes); made in house; host or cells: E. coli One Shot BL21 Star
Sequence (Q93096 1-173): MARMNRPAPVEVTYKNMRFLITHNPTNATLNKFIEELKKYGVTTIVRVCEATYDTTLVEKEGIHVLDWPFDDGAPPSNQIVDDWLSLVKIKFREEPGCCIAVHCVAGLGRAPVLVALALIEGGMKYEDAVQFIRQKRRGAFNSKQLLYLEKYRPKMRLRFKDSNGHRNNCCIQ
test: In vitro phosphatase assay (DiFMUP hydrolysis), PRL-1
Assay type: biochemical
conditionDetails: FDA-approved drug screen; compared to DMSO
Structures can show the parent of a compound that is named as a salt. Starred links: 1 amine or outer side, 2 acyl side, 3 side chain; linkers in the order of their positions; H or OH if unused. Positions of bridges follow the written chain, without caps; N, C: chain ends. Non-standard residues stand in square brackets, D forms with d. Residues, ends and D or L forms follow the SMILES beside them. *: point of attachment. pTerphenylCO(4''-OnC5H11) = CCCCCOc1ccc(-c2ccc(-c3ccc(C(=O)*)cc3)cc2)cc1; Orn(4R-OH,5R-OH) = O=C([C@H](C[C@@H](O)[C@@H](O)N[*:3])N[*:1])[*:2]; hTyr(3S-OH,4S-OH) = N[C@H](C(=O)O)[C@H](O)[C@@H](O)c1ccc(O)cc1; Pro(3S-OH,4S-Me) = C[C@H]1CN[C@H](C(=O)O)[C@H]1O; Hyp = O=C(O)[C@@H]1C[C@@H](O)CN1
Could you label it y if measured % Phosphatase Activity (compared to DMSO) PRL-1 is 90% or higher, and n otherwise?

{"columns": ["compound", "className"],
 "data": [
  ["CNC(=O)[C@H](Cc1c[nH]c2ccccc12)NC(=O)[C@@H](CC(=O)NO)CC(C)C", "y"]
]}

Answer whether % Phosphatase Activity (compared to DMSO) PRL-1 of O=C1c2c(O)ccc(O)c2C(=O)c2c(NCCNCCO)ccc(NCCNCCO)c21 [Mitoxantrone HCl] is greater than or equal to 90%.
n

Answer whether % Phosphatase Activity (compared to DMSO) PRL-1 of CCN(C)C(=O)Oc1cccc([C@H](C)N(C)C)c1 [Rivastigmine] is greater than or equal to 90%.
y

Answer whether % Phosphatase Activity (compared to DMSO) PRL-1 of [H]/N=C(/N)N/C(=N/[H])NCCc1ccccc1 [Phenformin HCl] is greater than or equal to 90%.
y

Answer whether % Phosphatase Activity (compared to DMSO) PRL-1 of CC[C@H]1CN2CC[C@H]1C[C@@H]2[C@@H](O)c1ccnc2ccc(OC)cc12 [Hydroquinidine] is greater than or equal to 90%.
y

Answer whether % Phosphatase Activity (compared to DMSO) PRL-1 of CCCCCOc1ccc(-c2ccc(-c3ccc(C(=O)N[C@H]4C[C@@H](O)[C@@H](O)NC(=O)[C@@H]5[C@@H](O)[C@@H](C)CN5C(=O)[C@H]([C@@H](C)O)NC(=O)[C@H]([C@H](O)[C@@H](O)c5ccc(O)cc5)NC(=O)[C@@H]5C[C@@H](O)CN5C(=O)[C@H]([C@@H](C)O)NC4=O)cc3)cc2)cc1 [Anidulafungin (LY303366)] ({pTerphenylCO(4''-OnC5H11)}-[Orn(4R-OH,5R-OH)]T[Hyp][hTyr(3S-OH,4S-OH)]T[Pro(3S-OH,4S-Me)]; lactam 1-C) is greater than or equal to 90%.
y

Answer whether % Phosphatase Activity (compared to DMSO) PRL-1 of COc1c(N2CCNC(C)C2)c(F)cc2c(=O)c(C(=O)O)cn(C3CC3)c12 (stereo not shown) is greater than or equal to 90%.
y

Answer whether % Phosphatase Activity (compared to DMSO) PRL-1 of Oc1ccc(Cl)c2cccnc12 is greater than or equal to 90%.
y
